# measured_on: T1, human Claudin 18.2-VLP (human, UniProt P56856-2 1-261)
# T1 construct: also called CLDN18.2
# T1 sequence (looked up): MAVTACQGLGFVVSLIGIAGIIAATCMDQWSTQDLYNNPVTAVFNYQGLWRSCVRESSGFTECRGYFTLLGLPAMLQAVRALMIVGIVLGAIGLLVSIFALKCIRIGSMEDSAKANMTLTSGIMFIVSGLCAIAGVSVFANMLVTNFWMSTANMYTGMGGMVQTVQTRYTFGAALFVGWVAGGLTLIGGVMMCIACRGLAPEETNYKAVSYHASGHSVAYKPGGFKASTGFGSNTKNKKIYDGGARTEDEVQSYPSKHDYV
# test_details: ELISA, plate coated with human Claudin 18.2-VLP, HRP anti-sdAb detection
Hi there, I'd appreciate the recorded pEC50 for every entry that follows.
Scale: negative log10 of molar concentration, which is what pEC50 denotes.

Prompt line: Using the record for CLDN18.2-DOTAGA (VHH, DOTAGA chelator conjugated to the sdAb, residue not stated; DOL 1.23, also called CLDN18.2 sdAb conjugated with DOTAGA) VHH: EVQLVESGGGLVQPGGSLRLSCAASGSFFRIVAMGWYRQAPGSQRELVATITRGGSTYYADSVKGRFTISRDNAKNTLYLQMNSLRAEDTAVYYCNVRVEVPFMQPNDYWGQGTLVTVSS , report its pEC50.
Response line: 9.08

Prompt line: Using the record for CLDN18.2-L007 (VHH, functional linker L007 conjugated to the sdAb, residue not stated; DOL 1.69, also called CLDN18.2 sdAb-linker L007 conjugate; linker 007 conjugate) VHH: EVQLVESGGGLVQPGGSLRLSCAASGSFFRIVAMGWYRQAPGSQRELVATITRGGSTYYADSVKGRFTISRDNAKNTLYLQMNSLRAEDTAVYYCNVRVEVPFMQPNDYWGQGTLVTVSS , report its pEC50.
Response line: 8.13

Prompt line: Using the record for CLDN18.2-L009 (VHH, functional linker L009 conjugated to the sdAb, residue not stated; DOL 1.77, also called CLDN18.2 sdAb-linker L009 conjugate; linker 009 conjugate) VHH: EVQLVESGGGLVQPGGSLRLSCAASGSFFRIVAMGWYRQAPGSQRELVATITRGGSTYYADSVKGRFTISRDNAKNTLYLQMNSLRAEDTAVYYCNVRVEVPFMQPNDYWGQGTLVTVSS , report its pEC50.
Response line: 8.51

Prompt line: Using the record for CLDN18.2-L002 (VHH, functional linker L002 conjugated to the sdAb, residue not stated; DOL 1.18, also called CLDN18.2 sdAb-linker L002 conjugate) VHH: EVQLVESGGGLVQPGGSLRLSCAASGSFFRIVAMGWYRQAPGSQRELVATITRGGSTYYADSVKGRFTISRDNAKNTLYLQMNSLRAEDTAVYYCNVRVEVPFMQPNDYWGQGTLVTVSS , report its pEC50.
Response line: 8.66

Prompt line: Using the record for CLDN18.2-L010 (VHH, functional linker L010 conjugated to the sdAb, residue not stated; DOL 1.54, also called CLDN18.2 sdAb-linker L010 conjugate; linker 010 conjugate) VHH: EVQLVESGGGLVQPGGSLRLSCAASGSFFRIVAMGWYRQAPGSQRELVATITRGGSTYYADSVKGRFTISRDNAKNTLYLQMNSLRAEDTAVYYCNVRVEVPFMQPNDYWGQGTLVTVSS , report its pEC50.
Response line: 8.64

Prompt line: Using the record for CLDN18.2-L012 (VHH, functional linker L012 conjugated to the sdAb, residue not stated; DOL 1.65, also called CLDN18.2 sdAb-linker L012 conjugate) VHH: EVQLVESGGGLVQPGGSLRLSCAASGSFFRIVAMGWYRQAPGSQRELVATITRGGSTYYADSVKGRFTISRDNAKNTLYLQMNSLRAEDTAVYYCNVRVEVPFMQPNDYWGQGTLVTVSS , report its pEC50.
Response line: 8.71

Prompt line: Using the record for CLDN18.2-L001 (VHH, functional linker L001 conjugated to the sdAb, residue not stated; DOL 1.13, also called CLDN18.2 sdAb-linker L001 conjugate) VHH: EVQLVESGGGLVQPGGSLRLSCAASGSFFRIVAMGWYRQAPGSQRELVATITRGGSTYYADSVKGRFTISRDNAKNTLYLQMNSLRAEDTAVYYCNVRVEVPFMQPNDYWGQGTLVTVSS , report its pEC50.
Response line: 8.76

Prompt line: Using the record for CLDN18.2-L004 (VHH, functional linker L004 conjugated to the sdAb, residue not stated; DOL 1.37, also called CLDN18.2 sdAb-linker L004 conjugate) VHH: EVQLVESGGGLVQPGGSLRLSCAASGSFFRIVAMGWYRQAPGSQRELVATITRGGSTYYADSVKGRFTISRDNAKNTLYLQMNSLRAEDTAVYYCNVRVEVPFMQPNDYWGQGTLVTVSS , report its pEC50.
Response line: 8.46
